Here the recorded activation at 0.01 µM is given for each entry.
test system: Isolated Swine Adipocytes; assay: Stimulation of lipolysis (glycerol production) in isolated swine adipocytes; format: cell-based; settings: Sus scrofa, Adipocyte, 2 h, Test 1; 0.01 μM; read-out: percent increase compared to control, glycerol production

| Molecule | activation at 0.01 µM, % |
| --- | --- |
| Cn1c(=O)c2c(ncn2CCCNCC(O)c2cc(O)cc(O)c2)n(C)c1=O (stereo not shown) [VI, Reproterol] | 20 |
| CC(C)(C)NCC(O)c1cc(Br)no1 (stereo not shown) [II] | 27 |
| CC(C)(Cc1ccccc1)NCC(O)c1ccc(O)c(NS(C)(=O)=O)c1 (stereo not shown) [I, Zinterol] | 87 |
| CC(C)NCC(O)c1ccc(O)c(O)c1 (stereo not shown) [Isoproterenol] | 40 |
| CC(CCc1ccccc1)NCC(O)c1ccc(N)nc1 (stereo not shown) [IV] | 260 |
| Cc1ccc(C(=O)Oc2ccc(C(O)CNC(C)(C)C)cc2OC(=O)c2ccc(C)cc2)cc1 (stereo not shown) [Compound V, Bitolterol] | 7 |
| COc1ccc(CNc2cc(C(O)CNC(C)(C)C)ccc2O)cc1 (stereo not shown) [III] | 20 |

* * *

system: Rat Adipose Tissue; assay: Stimulation of lipolysis (glycerol production) in chopped rat adipose tissue; type: cell-based; conditions: Rattus norvegicus, 2 h, Test 1; 0.01 μM; read-out: percent increase compared to control, glycerol production
Here the recorded activation at 0.01 µM is given for each entry.

| Molecule | activation at 0.01 µM / % |
| --- | --- |
| CC(C)(C)NCC(O)c1cc(Br)no1 (stereo not shown) | 51 |
| CC(CCc1ccccc1)NCC(O)c1ccc(N)nc1 (stereo not shown) | 114 |
| COc1ccc(CNc2cc(C(O)CNC(C)(C)C)ccc2O)cc1 (stereo not shown) | 194 |
| Cc1ccc(C(=O)Oc2ccc(C(O)CNC(C)(C)C)cc2OC(=O)c2ccc(C)cc2)cc1 (stereo not shown) | 17 |
| CC(C)NCC(O)c1ccc(O)c(O)c1 (stereo not shown) | 45 |
| CC(C)(Cc1ccccc1)NCC(O)c1ccc(O)c(NS(C)(=O)=O)c1 (stereo not shown) | 90 |
| Cn1c(=O)c2c(ncn2CCCNCC(O)c2cc(O)cc(O)c2)n(C)c1=O (stereo not shown) | 63 |

* * *

Here the recorded Carcass Composition % of Change over Control, Fat is given for each entry.
assay: In vivo testing in rats: growth, feed conversion and carcass composition; parameters: species or system rat (male Charles River CD); conditions: Test 1; in diet, dose equivalent to 20 ppm clenbuterol (clenbuterol: 10)
Endpoint name: Carcass Composition % of Change over Control, Fat (%)

| Molecule | Display unit | Observed result |
| --- | --- | --- |
| CC(C)N[C@H]1CCc2c(ccc(O)c2CO)[C@@H]1O.Cl | % | -6.1 |
| COc1ccc(CNc2cc(C(O)CNC(C)(C)C)ccc2O)cc1 (stereo not shown) | % | -7.0 |
| COc1ccc(CC(C)NCC(O)c2ccc(O)c(NC=O)c2)cc1 (stereo not shown) | % | -10.4 |
| CC(C)(C)NCC(O)c1ccc(O)c(CO)n1 (stereo not shown) | % | -8.7 |
| Cc1ccc(C(=O)Oc2ccc(C(O)CNC(C)(C)C)cc2OC(=O)c2ccc(C)cc2)cc1 (stereo not shown) | % | -4.3 |
| CC(C)(C)NCC(O)c1cc(Cl)c(N)c(Cl)c1 (stereo not shown) | % | -11.3 |
| CC(C)(Cc1ccccc1)NCC(O)c1ccc(O)c(NS(C)(=O)=O)c1 (stereo not shown) | % | -10.4 |

# credit: patent US4847302A
